Where do these numbers come from? They come from paper PMC9233744.

Catalogue of binders with associated Kd
Target: Rgg144 (recombinant, Streptococcus pneumoniae D39, SPD_0144) (Streptococcus pneumoniae D39)
Experiment: fluorescence polarisation
No end group written: not given here.
Measured endpoint: Kd (µM)

[
  {
    "Binder": "SEWVIVIPALTNL (also: FITC label, position not given here) [FITC-labeled SHP144 F22A]",
    "Measurement units": "µM",
    "Reported": 7.1
  },
  {
    "Binder": "SEWVIVIPFLTNL (also: FITC label, position not given here) [FITC-labeled SHP144 (SHP144-C13), wild type]",
    "Measurement units": "µM",
    "Reported": 6.6
  },
  {
    "Binder": "SEAVIVIPFLTNL (also: FITC label, position not given here) [FITC-labeled SHP144 W16A]",
    "Measurement units": "µM",
    "Reported": 50
  }
]
